Parameter: KD-WT/KD-mut. Scope: all listed entries.
# targetSystem: T1, Factor VIIIa (recombinant FVIII, Kogenate FS, Bayer healthcare, activated with alpha-thrombin) (UniProt P00451 20-2351, limits assumed)
# T1 construct: also called FVIIIa; cofactor
# T1 sequence (looked up): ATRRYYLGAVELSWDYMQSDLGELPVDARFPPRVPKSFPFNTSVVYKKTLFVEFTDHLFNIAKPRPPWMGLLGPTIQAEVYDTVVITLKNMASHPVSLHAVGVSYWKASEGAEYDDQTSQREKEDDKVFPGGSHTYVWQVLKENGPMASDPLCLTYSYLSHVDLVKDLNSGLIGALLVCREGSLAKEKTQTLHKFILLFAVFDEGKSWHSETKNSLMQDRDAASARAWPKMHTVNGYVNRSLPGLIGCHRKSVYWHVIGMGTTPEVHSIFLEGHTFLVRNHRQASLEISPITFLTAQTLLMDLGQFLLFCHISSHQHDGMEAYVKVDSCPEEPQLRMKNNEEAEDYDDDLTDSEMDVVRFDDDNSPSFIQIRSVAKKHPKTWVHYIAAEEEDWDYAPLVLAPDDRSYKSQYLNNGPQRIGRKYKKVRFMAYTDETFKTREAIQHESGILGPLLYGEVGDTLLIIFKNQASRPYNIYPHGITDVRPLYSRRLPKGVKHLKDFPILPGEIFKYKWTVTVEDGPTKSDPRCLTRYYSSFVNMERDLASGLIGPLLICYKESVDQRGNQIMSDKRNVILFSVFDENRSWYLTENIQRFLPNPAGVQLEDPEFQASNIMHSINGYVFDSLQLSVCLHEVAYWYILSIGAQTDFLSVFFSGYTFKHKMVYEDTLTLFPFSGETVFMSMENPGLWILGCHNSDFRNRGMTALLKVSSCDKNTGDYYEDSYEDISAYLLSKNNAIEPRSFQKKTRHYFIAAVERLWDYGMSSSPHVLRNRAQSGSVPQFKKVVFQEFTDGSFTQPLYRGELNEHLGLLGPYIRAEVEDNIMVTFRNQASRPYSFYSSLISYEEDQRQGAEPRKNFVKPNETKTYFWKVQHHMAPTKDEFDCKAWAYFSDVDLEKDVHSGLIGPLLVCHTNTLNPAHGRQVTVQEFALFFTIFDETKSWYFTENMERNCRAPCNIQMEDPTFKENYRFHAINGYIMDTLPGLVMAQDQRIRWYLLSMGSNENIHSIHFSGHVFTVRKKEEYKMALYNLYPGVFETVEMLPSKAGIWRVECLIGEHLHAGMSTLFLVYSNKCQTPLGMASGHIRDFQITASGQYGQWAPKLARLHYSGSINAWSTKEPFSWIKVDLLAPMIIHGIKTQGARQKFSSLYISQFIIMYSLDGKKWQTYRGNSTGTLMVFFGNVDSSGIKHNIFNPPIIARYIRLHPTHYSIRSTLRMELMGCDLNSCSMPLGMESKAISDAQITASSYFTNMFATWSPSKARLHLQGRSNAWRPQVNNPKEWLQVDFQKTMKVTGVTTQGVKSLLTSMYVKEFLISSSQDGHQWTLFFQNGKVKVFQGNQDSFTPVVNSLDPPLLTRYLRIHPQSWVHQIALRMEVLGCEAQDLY
# assayExplanation: same assay; KD-app of Catalyst Biosciences WT FIXa divided by KD-app of the variant
Write the number in ratio without appending the unit.

FIXa-R318Y/R338E/T343R/N346Y/R403E/E410N (enzyme, also called R150Y/R170E/T175R/N178Y/R233E/E240N (chymotrypsin numbering)) chain 1: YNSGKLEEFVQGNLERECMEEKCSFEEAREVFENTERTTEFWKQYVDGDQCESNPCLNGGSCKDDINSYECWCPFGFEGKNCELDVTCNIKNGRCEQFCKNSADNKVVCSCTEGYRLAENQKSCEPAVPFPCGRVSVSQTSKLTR chain 2: VVGGEDAKPGQFPWQVVLNGKVDAFCGGSIVNEKWIVTAAHCVETGVKITVVAGEHNIEETEHTEQKRNVIRIIPHHNYNAAINKYNHDIALLELDEPLVLNSYVTPICIADKEYTNIFLKFGSGYVSGWGRVFHKGYSALVLQYLRVPLVDRATCLESTKFRIYYNMFCAGFHEGGRDSCQGDSGGPHVTEVEGTSFLTGIISWGEECAMKGKYGIYTKVSEYVNWIKNKTKLT; 6.1
FIXa-R318Y/R338E/N346D/R403E/E410N (enzyme, also called R150Y/R170E/N178D/R233E/E240N (chymotrypsin numbering)) chain 1: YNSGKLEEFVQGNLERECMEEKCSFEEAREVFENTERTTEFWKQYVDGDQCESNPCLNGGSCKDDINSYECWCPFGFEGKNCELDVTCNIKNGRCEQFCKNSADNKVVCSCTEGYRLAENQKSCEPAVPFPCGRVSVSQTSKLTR chain 2: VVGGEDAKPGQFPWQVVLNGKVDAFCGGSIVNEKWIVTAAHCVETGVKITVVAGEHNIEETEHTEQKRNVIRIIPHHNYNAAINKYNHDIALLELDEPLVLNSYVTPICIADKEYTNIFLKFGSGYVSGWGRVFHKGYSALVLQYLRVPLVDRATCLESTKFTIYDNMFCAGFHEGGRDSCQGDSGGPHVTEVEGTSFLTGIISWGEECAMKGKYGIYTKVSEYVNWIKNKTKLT; 0.9
FIXa-R318Y/R338E/R403E/E410S (enzyme, also called R150Y/R170E/R233E/E240S (chymotrypsin numbering)) chain 1: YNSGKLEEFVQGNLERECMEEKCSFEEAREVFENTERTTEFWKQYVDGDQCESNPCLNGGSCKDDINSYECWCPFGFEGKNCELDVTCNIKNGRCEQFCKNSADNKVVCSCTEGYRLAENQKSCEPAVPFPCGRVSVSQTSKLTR chain 2: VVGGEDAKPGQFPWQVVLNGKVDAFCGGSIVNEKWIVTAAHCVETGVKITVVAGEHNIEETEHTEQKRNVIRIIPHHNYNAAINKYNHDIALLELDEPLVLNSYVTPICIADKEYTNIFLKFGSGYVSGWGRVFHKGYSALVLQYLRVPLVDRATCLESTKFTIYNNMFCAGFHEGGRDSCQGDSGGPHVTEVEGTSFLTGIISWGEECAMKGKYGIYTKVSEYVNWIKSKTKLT; 1.8

// moving on: another record for KD-WT/KD-mut
Incoming: What KD-WT/KD-mut value was documented for this binder, FIXa-K247N/N249S/N260S (enzyme, also called K82N/N84S/N95S (chymotrypsin numbering)) chain 1: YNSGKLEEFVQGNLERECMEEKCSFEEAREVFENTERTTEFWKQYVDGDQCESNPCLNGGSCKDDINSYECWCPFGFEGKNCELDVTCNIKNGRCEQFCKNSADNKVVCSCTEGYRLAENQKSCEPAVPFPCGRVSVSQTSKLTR chain 2: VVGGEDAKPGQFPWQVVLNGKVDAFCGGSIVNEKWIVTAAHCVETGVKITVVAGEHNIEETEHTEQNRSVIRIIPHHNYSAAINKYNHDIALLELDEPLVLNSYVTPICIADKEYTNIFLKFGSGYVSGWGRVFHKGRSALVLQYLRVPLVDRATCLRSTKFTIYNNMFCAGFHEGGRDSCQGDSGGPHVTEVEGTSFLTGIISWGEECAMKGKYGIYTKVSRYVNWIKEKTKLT ?
Outgoing: 0.6
